# Tested on: OVCAR-4;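 also: growth inhibition of human OVCAR-4 cells, measured with a cell viability assay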
# test_method_notes: cells
# Format: functional, cell-based
# condition_parameters: Homo sapiens
# Description: SANGER: Inhibition of human OVCAR-4 cell growth in a cell viability assay.
pIC50: −log10 of the molar value.
observation_type: pIC50

>>> test_value("Cc1nc(Nc2ncc(C(=O)Nc3c(C)cccc3Cl)s2)cc(N2CCN(CCO)CC2)n1")
6.43
>>> test_value("C/C=C(/C)C(=O)O[C@H]1C(C)=C2[C@H]([C@@H]1OC(=O)CCCCCCC)[C@@](C)(OC(C)=O)C[C@H](OC(=O)CCC)[C@@]1(O)[C@H]2OC(=O)[C@@]1(C)O")
8.53
>>> test_value("NC(=O)c1ncn([C@@H]2O[C@H](COP(=O)(O)O)[C@@H](O)[C@H]2O)c1N")
3.12
>>> test_value("COc1cc(C)c(Sc2cnc(NC(=O)c3ccc(CNC(C)C(C)(C)C)cc3)s2)cc1C(=O)N1CCN(C(C)=O)CC1 (stereo not given)")
5.02

----------
# Test system: A4-Fuk;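 also: growth inhibition of A4-Fuk cells, read out by a cell viability assay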
# test_method_notes: cells
# Format: functional, cell-based
# condition_parameters: Homo sapiens
# Description: SANGER: Inhibition of human A4-Fuk cell growth in a cell viability assay.
pIC50: −log10 of the molar value.
observation_type: pIC50

>>> test_value("COc1cc(C)c(Sc2cnc(NC(=O)c3ccc(CNC(C)C(C)(C)C)cc3)s2)cc1C(=O)N1CCN(C(C)=O)CC1 (stereo not given)")
5.79
>>> test_value("Cc1ccc(NC(=O)c2cccc(C(C)(C)C#N)c2)cc1Nc1ccc2ncn(C)c(=O)c2c1")
6.32
>>> test_value("CO[C@@]12[C@H](COC(N)=O)C3=C(C(=O)C(C)=C(N)C3=O)N1C[C@@H]1N[C@@H]12 [MITOMYCIN]")
6.65

----------
Let's look at some compounds and their measured IC50.
# Tested on: KALS-1
# test_method_notes: cells
# Format: functional, cell-based
# condition_parameters: Homo sapiens
# Description: SANGER: Inhibition of human KALS-1 cell growth in a cell viability assay.
observation_type: IC50

>>> test_value("C/C=C(/C)C(=O)O[C@H]1C(C)=C2[C@H]([C@@H]1OC(=O)CCCCCCC)[C@@](C)(OC(C)=O)C[C@H](OC(=O)CCC)[C@@]1(O)[C@H]2OC(=O)[C@@]1(C)O")
"0.516 nM"
>>> test_value("C/C(O)=C(\\C#N)C(=O)Nc1cc(Br)ccc1Br")
"> 16000 nM"
>>> test_value("Cc1[nH]c(/C=C2\\C(=O)Nc3ccc(S(=O)(=O)Cc4c(Cl)cccc4Cl)cc32)c(C)c1C(=O)N1CCC[C@@H]1CN1CCCC1")
"> 2000 nM"
>>> test_value("CCn1c(-c2nonc2N)nc2cnc(Oc3cccc(NC(=O)c4ccc(OCCN5CCOCC5)cc4)c3)cc21 [GSK-269962A]")
"> 2500 nM"

----------
# Tested on: SW 954;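 also: growth inhibition of SW954 human cancer cells, read out as cell viability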
# test_method_notes: cells
# Assay type: functional, cell-based
# condition_parameters: Homo sapiens
# Description: SANGER: Inhibition of human SW954 cell growth in a cell viability assay.
observation_type: IC50 (µM)

>>> test_value("Fc1cc(-c2cc[nH]/c(=N/c3ccc(-n4cnc(N5CCOCC5)n4)cc3)n2)cc(N2CCOCC2)c1")
0.473
>>> test_value("COc1cc(C)c(Sc2cnc(NC(=O)c3ccc(CNC(C)C(C)(C)C)cc3)s2)cc1C(=O)N1CCN(C(C)=O)CC1 (stereo not given)")
7.79
>>> test_value("CO[C@@]12[C@H](COC(N)=O)C3=C(C(=O)C(C)=C(N)C3=O)N1C[C@@H]1N[C@@H]12 [MITOMYCIN]")
0.0449
>>> test_value("CC(C)=CC[C@@H](O)C1=CC(=O)c2c(O)ccc(O)c2C1=O [SHIKONIN]")
0.467

// provenance: ChEMBL document CHEMBL1201861
